biological target: T1, ubiquitin (Ub) (UniProt P0CG48 1-76); experiment: ITC; Ub (1 mM stock) injected into USP13-ZnF, USP5-ZnF or its mutants (50 µM), 25 injections of 8 µL; 50 mM Tris, 150 mM NaCl, pH 7.5, 1 mM DTT; 25°C; conditions: both partners purified
T1 construct: ubiquitin, free monomer; only a GST-fused Ub construct is named in the methods; also called free Ub; monoUb
readout-kind: pKd
Would you please state pKd, meaning minus log10 of the concentration in mol/L, as a bare number?

Example entries and their recorded answers appear below.
binder	pKd
USP5-ZnF Y261F (domain or fragment, human, UniProt P45974 169-289, looked up, USP5, human, ZnF domain, residues 169-289, point mutant in pET-M; source: E. coli BL21, purified (Ni-NTA agarose, size-exclusion chromatography)) WDGEVRQVSKHAFSLKQLDNPARIPPCGWKCSKCDMRENLWLNLTDGSILCGRRYFDGSGGNNHAVEHYRETGYPLAVKLGTITPDGADVYSFDEDDMVLDPSLAEHLSHFGIDMLKMQKT	4.06
USP5-ZnF Y223F (domain or fragment, human, UniProt P45974 169-289, looked up, USP5, human, ZnF domain, residues 169-289, point mutant in pET-M; source: E. coli BL21, purified (Ni-NTA agarose, size-exclusion chromatography)) WDGEVRQVSKHAFSLKQLDNPARIPPCGWKCSKCDMRENLWLNLTDGSILCGRRFFDGSGGNNHAVEHYRETGYPLAVKLGTITPDGADVYSYDEDDMVLDPSLAEHLSHFGIDMLKMQKT	5.19
USP5-ZnF R222W (domain or fragment, human, UniProt P45974 169-289, looked up, USP5, human, ZnF domain, residues 169-289, point mutant in pET-M; source: E. coli BL21, purified (Ni-NTA agarose, size-exclusion chromatography)) WDGEVRQVSKHAFSLKQLDNPARIPPCGWKCSKCDMRENLWLNLTDGSILCGRWYFDGSGGNNHAVEHYRETGYPLAVKLGTITPDGADVYSYDEDDMVLDPSLAEHLSHFGIDMLKMQKT	5.04

Please examine the following record next.
// returns reported pKd for input ZnF domain of USP5 (USP5-ZnF, residues 169-289), wild type (domain or fragment, human, UniProt P45974 169-289, looked up, USP5 (isopeptidase T, isoT), human, zinc finger (ZnF) domain, residues 169-289, cloned into pET-M; also called WT; source: E. coli BL21, purified (Ni-NTA agarose, size-exclusion chromatography)) WDGEVRQVSKHAFSLKQLDNPARIPPCGWKCSKCDMRENLWLNLTDGSILCGRRYFDGSGGNNHAVEHYRETGYPLAVKLGTITPDGADVYSYDEDDMVLDPSLAEHLSHFGIDMLKMQKT
5.64
